- Tested on: COLO 205 colon
- assay.method.text: NCI-60 one-dose screen, 48 h (100 = growth as untreated, 0 = no growth, -100 = all killed)
- test.settings: 10 µM unless noted
- Description: Cells are grown in 96 well plates and exposed to the test compound for 48 hours. Compounds are tested at a single concentration, which is 10^-5 M for most compounds. The reported endpoint is percent growth (GI% or GIPRCNT), where numbers from 0 - 100% represent growth inhibition, and numbers from -100% - 0 represent cell death. For example, a value of 40 represents 60% growth inhibition. A value of 0 means no net growth occurred over the course of the experiment. […]
The panel holds about 83,000 compounds, 20% with a hit somewhere; the sample as a whole holds those more often.
property: growth (%)
Only the number, expressed in %, is required.

compound	property	result.value
NC(=N\N=C/c1cccc([N+](=O)[O-])c1)/C(N)=N\N=C/c1cccc([N+](=O)[O-])c1	growth	19.4
CCCCCCCCCCCCCCCCCCOc1ccccc1CC(=O)OCCC[N+](C)(C)C	growth	16.7
CC1(C)CC(=O)C2=C(C1)N(c1ccc(OC(F)(F)F)cc1)C(N)=C(C#N)C2c1ccc(Cl)cc1 (centres undefined)	growth	96.6
S=C(c1ccc2c(c1)OCO2)N1CCN(c2ccccc2Cl)CC1	growth	97.1
CCCc1cc2c(=O)c(C(=O)OC)c[nH]c2cc1N(CC)CC	growth	119
N#CC1=C(NC=O)Oc2c(ccc3ccccc23)C1c1ccccc1 (centres undefined)	growth	96.4

Prompt line: Recorded growth of C(=N\Nc1ncc(-c2cc3cc4c(cc3o2)OCO4)s1)/c1ccco1 , please.
Response line: 6.46

Prompt line: I would be grateful if you could share the reported growth for COc1cc(C(=O)/C=C/c2c(C(F)(F)F)nc3sccn23)cc(OC)c1OC .
Response line: -76.7

Prompt line: Recorded growth of COc1ccc(-c2cc(-c3ccc(Nc4nc(Nc5ccc(Cl)cc5)nc(Nc5ccc(Cl)cc5)n4)cc3)nc(N)c2C#N)cc1 , please.
Response line: 5.26

All values here come from PubChem BioAssay (NCI).
